Below, each of the compounds is paired with its reported Post-emergence action against ABUTH in % value.
Test system: ABUTH
Assay: Post-emergence herbicidal action against ABUTH
Format: in vivo, Abutilon theophrasti
Conditions: dosage 5 g/ha, visual assessment about 3 weeks after treatment vs untreated controls
endpoint.name: Post-emergence action against ABUTH in % (%)

>>> measured_number("CCn1nnnc1NC(=O)c1ccc(C(F)(F)F)c(C(=O)NC2CCC2)c1C [Example 2-42]")
80
>>> measured_number("CCn1nnnc1NC(=O)c1ccc(C(F)F)c(C(=O)NC)c1C1CC1 [Example 2-304]")
90
>>> measured_number("Cc1nnc(NC(=O)c2ccc(C(F)F)c(C(=O)NC3CC3)c2Cl)o1 [Example 6-124]")
80
>>> measured_number("CCn1nnnc1NC(=O)c1ccc(OC)c(C(=O)NC2CC2)c1Cl [Example 2-354]")
90
>>> measured_number("CCNC(=O)c1c(C(F)F)ccc(C(=O)Nc2nnco2)c1Cl [Example 5-123]")
90
>>> measured_number("CCn1nnnc1NC(=O)c1ccc(I)c(C(=O)NC)c1Cl [Example 2-195]")
100
>>> measured_number("CCNC(=O)c1c(C(F)F)ccc(C(=O)Nc2nnco2)c1SC [Example 5-75]")
90
>>> measured_number("CCn1nnnc1NC(=O)c1ccc(C(F)(F)F)c(C(=O)NCC2CC2)c1Br [Example 2-210]")
80
>>> measured_number("CCNC(=O)c1c(C(F)(F)F)ccc(C(=O)Nc2nnnn2CC)c1OC [Example 2-57]")
90

---

Test system: ECHCG
Assay: Pre-emergence herbicidal action against ECHCG
Format: in vivo, Echinochloa crus-galli
Settings: 80 g/ha
Below, each of the compounds is paired with its reported Pre-emergence action against ECHCG in % value.
endpoint.name: Pre-emergence action against ECHCG in % (%)

>>> measured_number("Cc1nnc(NC(=O)c2ccc(Br)c(C(=O)NC(C)C3CC3)c2Cl)o1 (centres unmarked) [Example 6-257]")
80
>>> measured_number("CCn1nnnc1NC(=O)c1ccc(C(F)F)c(C(=O)NC2CC2)c1C [Example 2-46]")
90
>>> measured_number("CCn1nnnc1NC(=O)c1ccc(C(F)(F)F)c(C(=O)NCC(F)F)c1Cl [Example 2-134]")
100
>>> measured_number("Cn1nnnc1NC(=O)c1ccc(C(F)F)c(C(=O)NCC2CCCO2)c1Cl (centres unmarked) [Example 1-159]")
90
>>> measured_number("Cc1nnc(NC(=O)c2ccc(C(F)(F)F)c(C(=O)NC3CC3)c2Cl)o1 [Example 6-118]")
100
>>> measured_number("Cc1nnc(NC(=O)c2ccc(C(F)F)c(C(=O)NC(C)C3CC3)c2C)o1 (centres unmarked) [Example 6-258]")
100
>>> measured_number("CCn1nnnc1NC(=O)c1ccc(C(F)(F)F)c(C(=O)NC2CCC2)c1C [Example 2-42]")
100
>>> measured_number("CCNC(=O)c1c(C(F)F)ccc(C(=O)Nc2nnnn2CC)c1OC [Example 2-73]")
100

---

Below, each of the compounds is paired with its reported Post-emergence action against ALOMY in % value.
Test system: ALOMY
Test: Post-emergence herbicidal action against ALOMY
Format: in vivo, Alopecurus myosuroides
Details: dosage 20 g/ha, visual assessment about 3 weeks after treatment vs untreated controls
endpoint.name: Post-emergence action against ALOMY in % (%)

>>> measured_number("Cn1nnnc1NC(=O)c1ccc(C(F)F)c(C(=O)NCC(F)F)c1Br [Example 1-230]")
90
>>> measured_number("CC(NC(=O)c1c(C(F)F)ccc(C(=O)Nc2nnnn2C)c1Br)C1CC1 (stereo not drawn) [Example 1-340]")
80
>>> measured_number("CSc1c(C(=O)Nc2nnnn2C)ccc(C(F)(F)F)c1C(=O)NC(C)C1CC1 (stereo not drawn) [Example 1-352]")
80

---

System: ABUTH
Experiment: Post-emergence herbicidal action against ABUTH
Assay type: in vivo, Abutilon theophrasti
Conditions: Abutilon theophrasti, 504 h, dosage 5 g/ha, visual assessment about 3 weeks after treatment vs untreated controls
Below, each of the compounds is paired with its reported pest or weed control at 5 g/ha value.
endpoint.name: pest or weed control at 5 g/ha (%)

>>> measured_number("CNC(=O)c1c(C(F)(F)F)ccc(C(=O)Nc2nnc(C)o2)c1Cl")
90
>>> measured_number("CCc1c(C(=O)Nc2nnnn2C)ccc(C(F)(F)F)c1C(=O)NC1CC1")
90
>>> measured_number("CCn1nnnc1NC(=O)c1ccc(C(F)(F)F)c(C(N)=O)c1Cl")
100
>>> measured_number("CCNC(=O)c1c(C(F)(F)C(F)(F)F)ccc(C(=O)Nc2nnnn2C)c1Cl")
90

---

Test system: ABUTH
Assay: Post-emergence herbicidal action against ABUTH
Type: in vivo, Abutilon theophrasti
Settings: dosage 20 g/ha, visual assessment about 3 weeks after treatment vs untreated controls
endpoint.name: Post-emergence action against ABUTH in % (%)

>>> measured_number("COCCNC(=O)c1c(C(F)F)ccc(C(=O)Nc2nnnn2C)c1C")
90
>>> measured_number("CCn1nnnc1NC(=O)c1ccc(C(F)F)c(C(=O)NC2CC2)c1C1CC1")
80
>>> measured_number("CCn1nnnc1NC(=O)c1ccc(C(F)(F)F)c(C(=O)NC2CCC2)c1Cl")
80
>>> measured_number("Cn1nnnc1NC(=O)c1ccc(C(F)(F)F)c(C(=O)NCC(F)F)c1C1CC1")
90
>>> measured_number("CCNC(=O)c1c(C(F)(F)F)ccc(C(=O)Nc2nnco2)c1Cl")
90
>>> measured_number("CCn1nnnc1NC(=O)c1ccc(C(F)F)c(C(=O)NCC(F)F)c1SC")
90
>>> measured_number("CCn1nnnc1NC(=O)c1ccc(C(F)(F)F)c(C(=O)NC)c1C1CC1")
90
>>> measured_number("CCn1nnnc1NC(=O)c1ccc(Br)c(C(=O)NC(C)C)c1Cl")
100
>>> measured_number("CCn1nnnc1NC(=O)c1ccc(C(F)F)c(C(=O)NC(C)C2CC2)c1SC (stereo not drawn)")
80

---

Below, each of the molecules is paired with its reported Post-emergence action at 20 g/ha against AMARE in % value.
Test system: AMARE
Experiment: Post-emergence herbicidal action against AMARE
Type: in vivo, Amaranthus retroflexus
Conditions: 20 g/ha, visual assessment about 3 weeks after treatment, 100% = plants have died, 0% = like control plants
endpoint.name: Post-emergence action at 20 g/ha against AMARE in % (%)

>>> measured_number("CCn1nnnc1NC(=O)c1ccc(C(F)(F)F)c(C(=O)NCC2CC2)c1SC")
100
>>> measured_number("CCNC(=O)c1c(C(F)F)ccc(C(=O)Nc2nnc(C)o2)c1Br")
80
>>> measured_number("Cc1nnc(NC(=O)c2ccc(C(F)F)c(C(=O)NC3CC3)c2C)o1")
90
>>> measured_number("CSc1c(C(=O)Nc2nnnn2C)ccc(C(F)F)c1C(=O)NCC1CC1")
100
>>> measured_number("CSc1c(C(=O)Nc2nnnn2C)ccc(C(F)(F)F)c1C(=O)NCC(F)F")
100
>>> measured_number("CCNC(=O)c1c(C(F)F)ccc(C(=O)Nc2nnc(C)o2)c1C")
100
>>> measured_number("CCn1nnnc1NC(=O)c1ccc(C(F)(F)F)c(C(=O)NC2CCC2)c1C")
100
>>> measured_number("CCCn1nnnc1NC(=O)c1ccc(C(F)(F)F)c(C(=O)NCC)c1Br")
90
>>> measured_number("Cn1nnnc1NC(=O)c1ccc(C(F)(F)F)c(C(=O)NCC#N)c1Cl")
80

---

Below, each of the compounds is paired with its reported Pre-emergence action against STEME in % value.
System: STEME
Assay: Pre-emergence herbicidal action against STEME
Assay type: in vivo, Stellaria media
Settings: dosage 20 g/ha
endpoint.name: Pre-emergence action against STEME in % (%)

>>> measured_number("CCNC(=O)c1c(C(F)(F)F)ccc(C(=O)Nc2nnc(C)o2)c1C")
80
>>> measured_number("Cc1nnc(NC(=O)c2ccc(C(F)F)c(C(=O)NC3CC3)c2Cl)o1")
80
>>> measured_number("CNC(=O)c1c(C(F)(F)F)ccc(C(=O)Nc2nnco2)c1SC")
100
>>> measured_number("CNC(=O)c1c(C(F)F)ccc(C(=O)Nc2nnco2)c1SC")
90

---

Below, each of the compounds is paired with its reported pest or weed control at 80 g/ha value.
Test system: VIOTR
Test: Pre-emergence herbicidal action against VIOTR
Assay type: in vivo, Viola tricolor
Conditions: Viola tricolor, 504 h, dosage 80 g/ha
endpoint.name: pest or weed control at 80 g/ha (%)

>>> measured_number("CCc1c(C(=O)Nc2nnnn2C)ccc(C(F)(F)F)c1C(=O)NC [Example 1-271]")
100
>>> measured_number("Cn1nnnc1NC(=O)c1ccc(C(F)(F)F)c(C(=O)NCC(F)(F)F)c1Cl [Example 1-133]")
100
>>> measured_number("CCNC(=O)c1c(C(F)(F)F)ccc(C(=O)Nc2nnnn2C)c1CC [Example 1-272]")
100
>>> measured_number("CCCn1nnnc1NC(=O)c1ccc(C(F)(F)F)c(C(N)=O)c1Cl [Example 3-338]")
90
>>> measured_number("CCn1nnnc1NC(=O)c1ccc(C(F)(F)F)c(C(=O)NC2CC2)c1C1CC1 [Example 2-288]")
100
>>> measured_number("CCc1c(C(=O)Nc2nnnn2C)ccc(C(F)F)c1C(=O)NC [Example 1-277]")
100
>>> measured_number("CCn1nnnc1NC(=O)c1ccc(C(F)(F)F)c(C(=O)NC(C)=O)c1Cl [Example 2-337]")
100
>>> measured_number("CCCNC(=O)c1c(C(F)(F)F)ccc(C(=O)Nc2nnnn2CC)c1C [Example 2-32]")
100
>>> measured_number("CCNC(=O)c1c(C(F)(F)F)ccc(C(=O)Nc2nnnn2C)c1C1CC1 [Example 1-287]")
100
>>> measured_number("CNC(=O)c1c(C(F)F)ccc(C(=O)Nc2nnnn2C)c1C [Example 1-44]")
90
>>> measured_number("CCn1nnnc1NC(=O)c1ccc(Cl)c(C(=O)NC2CC2)c1Br [Example 2-349]")
100
>>> measured_number("Cn1nnnc1NC(=O)c1ccc(S(C)(=O)=O)c(C(=O)NC2CC2)c1Cl [Example 1-125]")
100
>>> measured_number("CNC(=O)c1c(C(F)F)ccc(C(=O)Nc2nnnn2C)c1OC [Example 1-72]")
100
>>> measured_number("CCCn1nnnc1NC(=O)c1ccc(C(F)(F)F)c(C(=O)NCC)c1C [Example 3-26]")
100
>>> measured_number("CCn1nnnc1NC(=O)c1ccc(C(F)(F)F)c(C(=O)NC2CC2)c1OC [Example 2-58]")
100
>>> measured_number("CCNC(=O)c1c(C(F)(F)F)ccc(C(=O)Nc2nnnn2C)c1C [Example 1-26]")
100
>>> measured_number("CNC(=O)c1c(C(F)(F)F)ccc(C(=O)Nc2nnnn2C)c1C [Example 1-25]")
100
>>> measured_number("CNC(=O)c1c(Cl)ccc(C(=O)Nc2nnnn2C)c1Br [Example 1-349]")
100
>>> measured_number("CC(=O)NC(=O)c1c(C(F)(F)F)ccc(C(=O)Nc2nnnn2C)c1Cl [Example 1-337]")
80
>>> measured_number("CCCNC(=O)c1c(C(F)(F)F)ccc(C(=O)Nc2nnnn2C)c1C [Example 1-32]")
100
>>> measured_number("CCn1nnnc1NC(=O)c1ccc(C(F)(F)F)c(C(=O)NC)c1SC [Example 2-81]")
90
>>> measured_number("CCn1nnnc1NC(=O)c1ccc(C(F)(F)F)c(C(=O)NC)c1Br [Example 2-207]")
100
>>> measured_number("Cn1nnnc1NC(=O)c1ccc(Cl)c(C(=O)NC2CC2)c1Br [Example 1-351]")
100
>>> measured_number("Cn1nnnc1NC(=O)c1ccc(Br)c(C(=O)NCC(F)(F)F)c1Cl [Example 1-181]")
100
>>> measured_number("Cc1nnc(NC(=O)c2ccc(C(F)(F)F)c(C(=O)NC(C)C)c2C)o1 [Example 6-255]")
90
>>> measured_number("CNC(=O)c1c(Br)ccc(C(=O)Nc2nnnn2C)c1Cl [Example 1-177]")
100
>>> measured_number("CCNC(=O)c1c(C(F)(F)F)ccc(C(=O)Nc2nnc(C)o2)c1Cl [Example 6-117]")
80
>>> measured_number("CCNC(=O)c1c(C(F)(F)F)ccc(C(=O)Nc2nnnn2CC)c1C1CC1 [Example 2-287]")
100
>>> measured_number("CCNC(=O)c1c(C(F)F)ccc(C(=O)Nc2nnnn2C)c1SC [Example 1-88]")
100
>>> measured_number("CC(C)NC(=O)c1c(Br)ccc(C(=O)Nc2nnnn2C)c1Cl [Example 1-185]")
100
>>> measured_number("Cc1c(C(=O)Nc2nnnn2C)ccc(C(F)F)c1C(=O)NC(C)C [Example 1-346]")
100
>>> measured_number("CCNC(=O)c1c(Br)ccc(C(=O)Nc2nnnn2C)c1Cl [Example 1-178]")
100
>>> measured_number("CCn1nnnc1NC(=O)c1ccc(C(F)F)c(C(=O)NC2CC2)c1Cl [Example 2-149]")
100
